Ref: PubChem BioAssay (EPA / NIEHS)

- Read-out: Transforming growth factor beta 1 (TGFb1), TGFB1 (gene 7040)
- measurement.description: BSK_KF3CT_TGFb1: BioMAP Diversity Plus: KF3CT Assay for Transforming growth factor beta 1 (TGFb1) Biomarker Activity (AID 2283072)
- cond: primary human keratinocytes with fibroblasts; actives raise or lower the signal
- Protocol: BSK_KF3CT is a cell-based, multiplexed-readout assay that uses keratinocytes and foreskin fibroblasts, a human skin primary cell co-culture, with measurements taken at 24 hours after chemical dosing in a 96-well plate.BSK_KF3CT_TGFb1 is an assay component measured in the BSK_KF3CT assay. It measures TGF-b1 antibody related to regulation of gene expression using ELISA technology.Data from the assay component BSK_KF3CT_TGFb1 was analyzed into 1 assay endpoint. […]
Calls of active or inactive are those of the source. The calls were made as follows: active = hit-call score of the fitted dose curve at least 0.9, where 1 is the maximum; inactive = score below 0.9.
Outcome field: choose from label 1 for active, label 0 for inactive

- query.smiles: "Cc1c2ccccc2c(C)c2c1ccc1ccccc12"
  class.name: "label 0"
- query.smiles: "CCCOC(=O)c1cc(O)c(O)c(O)c1"
  class.name: "label 1"
- query.smiles: "CN(C)C(=O)C1(N2CCCCC2)CCN(CC[C@@]2(c3ccc(Cl)c(Cl)c3)CN(C(=O)c3ccccc3)CCO2)CC1"
  class.name: "label 1"
- query.smiles: "CCCCCCCCCC(=O)O"
  class.name: "label 0"
- query.smiles: "Cc1cc2c(cc1C(F)(F)F)N(C(=O)Nc1ccc(Oc3cccnc3C)nc1)CC2"
  class.name: "label 1"
- query.smiles: "O=C(O)c1ccccc1C(=O)OCc1ccccc1"
  class.name: "label 0"

Switching to the query record.
input: So what was the verdict on "c1ccc(C[n+]2cccc3ccccc32)cc1" in this test?
output: label 0
